Test system: BT-549
Assay remarks: NCI tumour cell line growth inhibition, 48 h
Calls of active or inactive are those of the source. Cut-off read from the data, not from the text of the source: active = GI50 up to about 1.1 µM and inactive = higher.
Reported values of GI50 for individual entries

GI50 for "COC(=O)[C@H]1NC(=O)CCSSC1(C)C" is > 100 µM (inactive)

GI50 for C=C1C(=O)OC2/C=C(CO)/C=C\C3OC3(C)CC(OC(=O)/C(C)=C/COC(C)=O)C12 (configuration not stated) is 1.57 µM (inactive)

GI50 for "Cc1c(C)c2c(c(N)c1C#N)C(=O)N(N)C2=O" is > 100 µM (inactive)

----------
Test system: NCI-H460
Assay remarks: NCI tumour cell line growth inhibition, 48 h
Calls of active or inactive are those of the source. Cut-off read from the data, not from the text of the source: active = GI50 up to about 1.1 µM and inactive = higher.
Assay endpoint: GI50

# Molecular string, GI50
measured = [
    ("CCOC(=O)C(=O)Nc1c(C)cccc1C(C)(C)C", "> 100 µM (inactive)"),
    ("Cn1c(-c2c(C3=CC(=O)N(c4ccccc4)C3=O)c3ccccc3n2C)cc2ccccc21", "> 100 µM (inactive)"),
    ("CC(=O)Oc1c(-c2ccccc2)[nH]c2cc([N+](=O)[O-])c(/C(Cl)=C/c3ccccc3)cc12", "4.62 µM (inactive)"),
    ("COc1cc(O)c2c(=O)c3c(C)cccc3n(C)c2c1", "> 10 µM (inactive)"),
]

Attention now turns to another entry.
GI50 for "O=C(OCC(Cl)(Cl)Cl)N1CC[C@@H](C2CCCCC2)C1" is 21 µM (inactive)
